PROTOCOL_DESCRIPTION: Cytotoxicity against C57BL/6J mouse primary hepatocytes assessed as cell viability at 100 uM incubated for 24 hrs by MTT assay relative to control
Assay type: toxicity, cell-based, Hepatocyte
CONDITION_INFO: read-out: Activity
Recorded viability at 24 h, 100 µM by entry
RESULT_TYPE: viability at 24 h, 100 µM (%)

- STRUCTURE: "CC(=O)OCCO[C@@H]1OC[C@@]2(CO)CCCC13[C@H]2CC[C@H]1[C@@H](C)c2ccoc2C[C@@H]13"
  RESULT_TYPE: "viability at 24 h, 100 µM"
  NUMERIC_READOUT: 79.9
- STRUCTURE: "COC(=O)[C@@]12CCCC3([C@H](OCCCO)OC1)[C@H]2CC[C@H]1[C@@H](C)c2ccoc2C[C@@H]13"
  RESULT_TYPE: "viability at 24 h, 100 µM"
  NUMERIC_READOUT: 12
- STRUCTURE: "COC(=O)[C@@]12CCCC3([C@H](OCCCCCCO)OC1)[C@H]2CC[C@H]1[C@@H](C)c2ccoc2C[C@@H]13"
  RESULT_TYPE: "viability at 24 h, 100 µM"
  NUMERIC_READOUT: 11.3
- STRUCTURE: "CCCNC(=O)[C@@]12CCCC3([C@H](OCCO)OC1)[C@H]2CC[C@H]1[C@@H](C)c2ccoc2C[C@@H]13"
  RESULT_TYPE: "viability at 24 h, 100 µM"
  NUMERIC_READOUT: 57.4
- STRUCTURE: "CNC(=O)[C@@]12CCCC3([C@H](OCCO)OC1)[C@H]2CC[C@H]1[C@@H](C)c2ccoc2C[C@@H]13"
  RESULT_TYPE: "viability at 24 h, 100 µM"
  NUMERIC_READOUT: 82.6
- STRUCTURE: "COC(=O)[C@@]12CCCC3([C@H](OCCOCCOCCOCCO)OC1)[C@H]2CC[C@H]1[C@@H](C)c2ccoc2C[C@@H]13"
  RESULT_TYPE: "viability at 24 h, 100 µM"
  NUMERIC_READOUT: 11
- STRUCTURE: "CC(=O)OC[C@@]12CCCC3([C@H](OCCO)OC1)[C@H]2CC[C@H]1[C@@H](C)c2ccoc2C[C@@H]13"
  RESULT_TYPE: "viability at 24 h, 100 µM"
  NUMERIC_READOUT: 92.4
- STRUCTURE: "COC(=O)[C@@]12CCCC3([C@H](OCCOCCOCCO)OC1)[C@H]2CC[C@H]1[C@@H](C)c2ccoc2C[C@@H]13"
  RESULT_TYPE: "viability at 24 h, 100 µM"
  NUMERIC_READOUT: 10.3
- STRUCTURE: "C[C@H]1c2ccoc2C[C@H]2[C@H]1CC[C@@H]1C23CCC[C@]1(CO)CO[C@H]3OCCO"
  RESULT_TYPE: "viability at 24 h, 100 µM"
  NUMERIC_READOUT: 42.2
- STRUCTURE: "COC(=O)[C@@]12CCCC3([C@H](OCCOCCO)OC1)[C@H]2CC[C@H]1[C@@H](C)c2ccoc2C[C@@H]13"
  RESULT_TYPE: "viability at 24 h, 100 µM"
  NUMERIC_READOUT: 10.6
- STRUCTURE: "COC(=O)[C@]12CCCC3([C@H]1CC[C@H]1[C@@H](C)c4ccoc4C[C@@H]13)[C@H](SCCO)OC2"
  RESULT_TYPE: "viability at 24 h, 100 µM"
  NUMERIC_READOUT: 10.2
- STRUCTURE: "COC(=O)[C@@]12CCCC3([C@H](O)OC1)[C@H]2CC[C@H]1[C@@H](C)c2ccoc2C[C@@H]13"
  RESULT_TYPE: "viability at 24 h, 100 µM"
  NUMERIC_READOUT: 7.5
- STRUCTURE: "CCNC(=O)[C@@]12CCCC3([C@H](OCCO)OC1)[C@H]2CC[C@H]1[C@@H](C)c2ccoc2C[C@@H]13"
  RESULT_TYPE: "viability at 24 h, 100 µM"
  NUMERIC_READOUT: 73.4
- STRUCTURE: "COC(=O)[C@@]12CCCC3([C@H](OCCCCCO)OC1)[C@H]2CC[C@H]1[C@@H](C)c2ccoc2C[C@@H]13"
  RESULT_TYPE: "viability at 24 h, 100 µM"
  NUMERIC_READOUT: 19.3
- STRUCTURE: "COC(=O)[C@@]12CCCC3([C@H](OCCCCO)OC1)[C@H]2CC[C@H]1[C@@H](C)c2ccoc2C[C@@H]13"
  RESULT_TYPE: "viability at 24 h, 100 µM"
  NUMERIC_READOUT: 18.7
- STRUCTURE: "COC(=O)[C@@]12CCCC3([C@H](OCCO)OC1)[C@H]2CC[C@H]1[C@@H](C)c2ccoc2C[C@@H]13"
  RESULT_TYPE: "viability at 24 h, 100 µM"
  NUMERIC_READOUT: 11.1

Hello, the source for this data is ChEMBL document CHEMBL5154738, in case you need it.
